molecular target: UniProt Q9H244; experiment: Antagonist activity at P2Y12 receptor assessed as inhibition of ADP-induced human platelet aggregation by washed platelet assay at 100 uM; format: functional
Sequence (Q9H244 whole entry): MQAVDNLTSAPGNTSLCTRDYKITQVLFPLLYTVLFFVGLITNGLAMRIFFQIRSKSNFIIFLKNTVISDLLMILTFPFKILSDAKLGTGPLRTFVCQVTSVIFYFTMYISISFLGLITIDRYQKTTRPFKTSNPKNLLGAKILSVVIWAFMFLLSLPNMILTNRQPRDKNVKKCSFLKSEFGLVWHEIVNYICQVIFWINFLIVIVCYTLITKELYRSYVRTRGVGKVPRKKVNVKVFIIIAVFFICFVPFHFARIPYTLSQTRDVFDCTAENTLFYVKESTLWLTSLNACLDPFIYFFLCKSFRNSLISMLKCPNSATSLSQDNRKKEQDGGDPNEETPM
Readout type: inhibition (%)

Molecule: Nc1ccn([C@@H]2O[C@H](COP(=O)(O)OP(=O)(O)OP(=O)(O)OP(=O)(O)OC[C@@H]3O[C@H](n4ccc(=O)[nH]c4=O)[C@H]4OC(Cc5ccccc5)O[C@H]43)[C@@H](O)[C@H]2O)c(=O)n1 (stereo not given in full)
Target of assay: UniProt Q9H244
Readout type: inhibition
Reported value: 46
//
Molecule: O=C(O[C@@H]1[C@H](OC(=O)c2ccccc2)[C@@H](n2ccc(=O)[nH]c2=O)O[C@H]1COP(=O)(O)OP(=O)(O)OP(=O)(O)OP(=O)(O)OC[C@H]1O[C@@H](n2ccc(=O)[nH]c2=O)[C@H](OC(=O)c2ccccc2)[C@@H]1OC(=O)c1ccccc1)c1ccccc1
Target of assay: UniProt Q9H244
Readout type: inhibition
Reported value: 52
//
Molecule: Nc1ncnc2c1ncn2[C@@H]1O[C@H](COP(=O)(O)O)[C@H]2O[C@@H](c3ccccc3)O[C@H]21
Target of assay: UniProt Q9H244
Readout type: inhibition
Reported value: 75
//
Molecule: CCCC1O[C@@H]2[C@H](O1)[C@@H](COP(=O)(O)OP(=O)(O)OP(=O)(O)OP(=O)(O)OC[C@@H]1O[C@H](n3ccc(=O)[nH]c3=O)[C@@H](O)[C@H]1O)O[C@H]2n1ccc(=O)[nH]c1=O (stereo not given in full)
Target of assay: UniProt Q9H244
Readout type: inhibition
Reported value: 44
//
Molecule: CCCC1O[C@@H]2[C@@H](O1)[C@@H](COP(=O)(O)OP(=O)(O)OP(=O)(O)OP(=O)(O)OC[C@@H]1O[C@H](n3ccc(=O)[nH]c3=O)[C@H]3OC(CCC)O[C@H]31)O[C@H]2n1ccc(=O)[nH]c1=O (stereo not given in full)
Target of assay: UniProt Q9H244
Readout type: inhibition
Reported value: 60

---

Measured EC50 by item
target: UniProt P41231; assay: Agonist activity at P2Y2 receptor expressed in human 1321 cells by calcium mobilization assay
Sequence (P41231 whole entry): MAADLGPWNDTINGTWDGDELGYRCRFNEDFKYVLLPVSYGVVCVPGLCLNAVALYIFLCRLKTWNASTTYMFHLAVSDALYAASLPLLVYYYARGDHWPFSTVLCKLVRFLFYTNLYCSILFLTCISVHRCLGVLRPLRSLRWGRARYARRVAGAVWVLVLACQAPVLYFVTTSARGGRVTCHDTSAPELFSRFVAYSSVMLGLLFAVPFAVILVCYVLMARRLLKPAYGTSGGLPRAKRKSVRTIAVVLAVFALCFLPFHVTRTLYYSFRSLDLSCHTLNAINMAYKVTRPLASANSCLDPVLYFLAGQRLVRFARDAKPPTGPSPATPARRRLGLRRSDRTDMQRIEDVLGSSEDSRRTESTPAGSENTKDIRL
Readout type: EC50

Compound: CCCC1O[C@@H]2[C@H](O1)[C@@H](COP(=O)(O)OP(=O)(O)OP(=O)(O)OP(=O)(O)OC[C@@H]1O[C@H](n3ccc(=O)[nH]c3=O)[C@@H](O)[C@H]1O)O[C@H]2n1ccc(=O)[nH]c1=O (some centres undefined)
Target of assay: UniProt P41231
Reported value: 98 nM
//
Compound: Nc1ncnc2c1ncn2[C@@H]1O[C@H](COP(=O)(O)OP(=O)(O)OP(=O)(O)OP(=O)(O)OC[C@@H]2O[C@H](n3cnc4c(N)ncnc43)[C@@H](O)[C@H]2O)[C@H]2OC(Cc3ccccc3)O[C@H]21 (some centres undefined)
Target of assay: UniProt P41231
Reported value: 52 nM
//
Compound: O=c1ccn([C@@H]2O[C@H](COP(=O)(O)OP(=O)(O)OP(=O)(O)OC[C@@H]3O[C@H](n4ccc(=O)[nH]c4=O)[C@@H](O)[C@H]3O)[C@@H](O)[C@H]2O)c(=O)[nH]1
Target of assay: UniProt P41231
Reported value: 13500 nM
//
Compound: Nc1ccn([C@@H]2O[C@H](COP(=O)(O)OP(=O)(O)OP(=O)(O)OP(=O)(O)OC[C@@H]3O[C@H](n4ccc(=O)[nH]c4=O)[C@@H](O)[C@H]3O)[C@@H](O)[C@H]2O)c(=O)n1
Target of assay: UniProt P41231
Reported value: 44 nM
